# Read-out: Cytochrome P450 7A1 (Homo sapiens) (UniProt P22680)
# experiment: LTEA_HepaRG_CYP7A1: Life Technologies and Expression Analysis (LTEA) Assay for Cytochrome P450 7A1 (CYP7A1) using HepaRG (AID 2283496)
# cond: mRNA level, 48 h; actives raise or lower the signal
Active and inactive are the calls of the source. How the source made its calls: active means hit-call score of the fitted dose curve at least 0.9, where 1 is the maximum; inactive means score below 0.9.
Result category, one only: yes (active), no (inactive)

O=C1CCCCCN1	no

API: the following record is the query input.
What call does the record list for CC(=O)OCCC(C)C ?
no

====

# tested.on: human Matrix Metalloproteinase-3 (MMP3), MMP3 (gene 4314) (UniProt P08254)
# Sequence (P08254 whole entry, looked up): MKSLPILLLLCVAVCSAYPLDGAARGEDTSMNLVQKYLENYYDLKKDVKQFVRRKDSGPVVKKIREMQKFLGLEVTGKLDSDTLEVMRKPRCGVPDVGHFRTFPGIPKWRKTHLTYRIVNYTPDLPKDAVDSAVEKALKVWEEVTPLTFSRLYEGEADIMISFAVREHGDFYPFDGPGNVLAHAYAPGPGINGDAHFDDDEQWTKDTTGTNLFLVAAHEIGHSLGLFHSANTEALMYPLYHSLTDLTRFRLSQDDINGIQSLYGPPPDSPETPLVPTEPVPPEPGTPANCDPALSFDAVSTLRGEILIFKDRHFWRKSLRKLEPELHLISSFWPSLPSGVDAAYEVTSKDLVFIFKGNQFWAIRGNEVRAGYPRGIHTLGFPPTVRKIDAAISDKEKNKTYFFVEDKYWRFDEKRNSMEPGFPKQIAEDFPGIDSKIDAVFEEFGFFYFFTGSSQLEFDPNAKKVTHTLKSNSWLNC
# experiment: NVS_ENZ_hMMP3: NovaScreen (NVS) Enzymatic Assay for human Matrix Metalloproteinase-3 (MMP3) (AID 2283185)
Inconclusive results are not listed. Calls of active or inactive are those of the source. Rule for the calls: active = hit-call score of the fitted dose curve at least 0.9, where 1 is the maximum; inconclusive = response in the unintended direction; inactive = score below 0.9.
Choose the fitting class; nothing outside yes for active, no for inactive is accepted.

Field: example entries. Status: answers known.
CCc1cc(SCc2sc(-c3ccc(C(F)(F)F)cc3)nc2CN2CCN(c3ccc(OC)cc3)CC2)ccc1OCC(=O)O	no
O=C(O)CCN(C1(C(=O)NO)CCCC1)S(=O)(=O)c1ccc(Oc2ccc(F)cc2)cc1	yes
O=C(OC[C@H]1O[C@@H](OC(=O)c2cc(O)c(O)c(OC(=O)c3cc(O)c(O)c(O)c3)c2)[C@H](OC(=O)c2cc(O)c(O)c(OC(=O)c3cc(O)c(O)c(O)c3)c2)[C@@H](OC(=O)c2cc(O)c(O)c(OC(=O)c3cc(O)c(O)c(O)c3)c2)[C@@H]1OC(=O)c1cc(O)c(O)c(OC(=O)c2cc(O)c(O)c(O)c2)c1)c1cc(O)c(O)c(OC(=O)c2cc(O)c(O)c(O)c2)c1	yes

Query: recorded result category for COc1ccc2sc(C(=O)Nc3nnn[nH]3)c(OC(C)C)c2c1 in this test
yes

Recorded test outcome, item Cc1[nH]cnc1C[C@H]1CCc2c(C)c3ccccc3n2C1=O
yes

====

# experiment: Tanguay_ZF_120hpf_PE_legacy: (Legacy) Oregon State University Tanguay Lab 120 Hour Post-fertilization zebrafish Assay for Pericardial Edema (AID 2283640)
Records with an inconclusive call do not appear. Activity calls are given as the source filed them. The calls were made as follows: active = hit-call score of the fitted dose curve at least 0.9, where 1 is the maximum; inconclusive = response in the unintended direction; inactive = score below 0.9.
Select the matching outcome among true (active), false (inactive)

Worked examples, 4 compounds total:
CC(C)CCO	false
CC(C)=CCCC(C)=CC=O	false
CCC(C)(C)C(=O)O[C@H]1C[C@@H](C)C=C2C=C[C@H](C)[C@H](CC[C@@H]3C[C@@H](O)CC(=O)O3)[C@H]21	true
Nc1cccc(N)c1	false

Pending compound:
Any idea what this test logged for CC(=O)OC[C@H]1O[C@@](COC(C)=O)(O[C@H]2O[C@H](COC(C)=O)[C@@H](OC(C)=O)[C@H](OC(C)=O)[C@H]2OC(C)=O)[C@@H](OC(C)=O)[C@@H]1OC(C)=O ?
false

====

# experiment: Tanguay_ZF_120hpf_SWIM_legacy: (Legacy) Oregon State University Tanguay Lab 120 Hour Post-fertilization zebrafish Assay for Swim Bladder Malformation (AID 2283654);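 further: swim bladder malformation in each larva scored yes or no under brightfield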
Results filed as inconclusive are left out. Activity calls are given as the source filed them. How the source made its calls: active means hit-call score of the fitted dose curve at least 0.9, where 1 is the maximum; inconclusive means response in the unintended direction; inactive means score below 0.9.
One label from this list, please: true = active, false = inactive

NC(=O)NO	false

State the result this test recorded for CCCCC(CC)COC(=O)c1ccc(C(=O)OCC(CC)CCCC)cc1 (configuration not stated) .
false

Please indicate how the test categorized COC(=O)c1ccccc1O .
false

Test call, this compound: CNCc1ccc(NC(=O)c2c[nH]c3c2C(=O)CCC3)cc1
false

Dear all, I need the recorded test outcome for CC[C@H]1CC[C@H](NCc2cc3c(cc2OC)[C@H]2C[C@H]2C(=O)N3C)[C@H](c2ccccc2)N1 , thank you.
false

Please state the recorded outcome for this compound: CC(C)=CCCC(C)CCO (configuration not stated)
false

Lab log entry: O=C(O)c1cc(N=Nc2ccc(S(=O)(=O)Nc3ccccn3)cc2)ccc1O — outcome as called in the assay?
false

Query: recorded result category for CCCCCCCCCCCCCCCO in this test
false

In this assay, the call recorded for CC(=O)c1ccc2c(c1)[C@H](NC(=O)c1ccc(F)cc1)[C@@H](O)C(C)(C)O2 was what?
false

====

# Read-out: 3-Hydroxy-3-Methylglutaryl-CoA Synthase 2 (HMGCS2), HMGCS2 (gene 3158)
# experiment: LTEA_HepaRG_HMGCS2: Life Technologies and Expression Analysis (LTEA) Assay for 3-Hydroxy-3-Methylglutaryl-CoA Synthase 2 (HMGCS2) using HepaRG (AID 2283504)
# cond: mRNA level, 48 h; actives raise or lower the signal
The source made the active and inactive calls. How the source made its calls: active means hit-call score of the fitted dose curve at least 0.9, where 1 is the maximum; inactive means score below 0.9.
Response enum: active, inactive

CC(C)CCCCCCOC(=O)c1ccc(C(=O)OCCCCCCC(C)C)c(C(=O)OCCCCCCC(C)C)c1	inactive

Per the assay record, what outcome was assigned to CCNc1ccccc1 ?
inactive

What did this assay record as the result for CNCc1ccc(NC(=O)c2c[nH]c3c2C(=O)CCC3)cc1 ?
inactive

Entry Cn1cnc([N+](=O)[O-])c1Sc1ncnc2nc[nH]c12 : call = ?
active

====

# tested.on: Hypoxia-inducible factor 1-alpha (Homo sapiens) (UniProt Q16665)
# Sequence (Q16665 whole entry, looked up): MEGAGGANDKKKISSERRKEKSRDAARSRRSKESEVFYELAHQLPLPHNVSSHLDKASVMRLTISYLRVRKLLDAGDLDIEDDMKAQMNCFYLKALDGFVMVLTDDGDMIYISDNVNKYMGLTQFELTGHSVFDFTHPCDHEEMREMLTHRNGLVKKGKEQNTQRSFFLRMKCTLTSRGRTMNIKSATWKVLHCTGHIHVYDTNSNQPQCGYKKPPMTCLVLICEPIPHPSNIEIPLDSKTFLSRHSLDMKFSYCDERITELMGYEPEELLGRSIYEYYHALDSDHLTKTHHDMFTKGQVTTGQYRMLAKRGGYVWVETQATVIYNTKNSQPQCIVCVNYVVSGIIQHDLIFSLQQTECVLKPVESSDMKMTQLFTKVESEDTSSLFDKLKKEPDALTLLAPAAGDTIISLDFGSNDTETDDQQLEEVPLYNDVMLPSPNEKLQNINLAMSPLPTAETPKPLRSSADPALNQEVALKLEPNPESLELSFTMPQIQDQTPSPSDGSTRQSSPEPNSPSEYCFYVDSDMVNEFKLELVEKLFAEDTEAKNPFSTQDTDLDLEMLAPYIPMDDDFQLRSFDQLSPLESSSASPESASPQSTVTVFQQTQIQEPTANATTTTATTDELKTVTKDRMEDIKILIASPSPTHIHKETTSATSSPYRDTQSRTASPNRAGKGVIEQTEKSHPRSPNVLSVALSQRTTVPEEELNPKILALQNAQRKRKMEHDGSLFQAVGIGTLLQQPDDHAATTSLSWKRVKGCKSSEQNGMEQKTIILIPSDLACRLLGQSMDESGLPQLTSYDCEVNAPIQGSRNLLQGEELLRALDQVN
# experiment: ATG_HIF1a_CIS: Attagene CIS-FACTORIAL HepG2 Assay for human Hypoxia Inducible Factor 1 (HIF1A) (AID 2282951)
# cond: HepG2 Attagene cis-factorial HIF1a reporter transcription; actives raise or lower the signal
Activity calls are given as the source filed them. The calls were made as follows: active = hit-call score of the fitted dose curve at least 0.9, where 1 is the maximum; inactive = score below 0.9.
Tick one outcome: active, inactive

CC(C)(O)c1coc(S(=O)(=O)NC(=O)Nc2c3c(cc4c2CCC4)CCC3)c1	inactive
CCCCCCCCCCCCCCCO	inactive
On1ccccc1=S	inactive
O=C(CCCCCCCCc1cccnc1)N1CCC(C=C(c2ccccc2)c2ccccc2)CC1	active
CCOC(=O)CC(CC(=O)OCC)(OC(C)=O)C(=O)OCC	inactive
CCn1nc(Cc2ccccc2)cc1C1CCN(C[C@H]2C[C@H](N(C)[C@@H](C(=O)O)C(C)C)C[C@@H]2c2cccc(F)c2)CC1	active

Kindly review the next molecule as well.
Give the logged outcome of this assay for the following molecule: O=C1OC(=O)C2C3C=CC(C3)C12 (configuration not stated)
inactive

====

# experiment: APR_HepG2_MitoMass_72hr: Apredica 72-hour HepG2 Assay for Mitochondrial Mass (AID 2282924);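 further: MitoTracker Red CMXRos stain intensity per cell imaged as mitochondrial mass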
# cond: high-content imaging, actives raise or lower the signal
# Experimental: APR_HepG2_72hr is a cell-based, multiplexed-readout assay that uses HepG2, a human liver cell line, with measurements taken at 72 hours after chemical dosing in a 384-well plate.APR_HepG2_MitoMass_72hr is one of 10 assay component(s) measured or calculated from the APR_HepG2_72hr assay. […] This assay endpoint, APR_HepG2_MitoMass_72hr, was analyzed with bidirectional fitting relative to DMSO as the negative control and baseline of activity. […]
The source made the active and inactive calls. Rule for the calls: active = hit-call score of the fitted dose curve at least 0.9, where 1 is the maximum; inactive = score below 0.9.
Respond with a class label; see active, inactive

// known answers, use as guide
CCOCCO	inactive
CCOC(=O)COc1ccc2c(c1)CC(NCC(O)c1cccc(Cl)c1)CC2 (stereo unspecified)	inactive
COC(=O)c1c(Cl)c(Cl)c(C(=O)OC)c(Cl)c1Cl	inactive
O=c1n(CC2CO2)c(=O)n(CC2CO2)c(=O)n1CC1CO1 (stereo unspecified)	active
C1=CCCC=CCCC=CCC1	inactive
Cn1cnc([N+](=O)[O-])c1Sc1ncnc2nc[nH]c12	inactive
Nc1nc2ncc(CNc3ccc(C(=O)N[C@@H](CCC(=O)O)C(=O)O)cc3)nc2c(=O)[nH]1	inactive
CC(=O)c1ccc2c(c1)[C@H](NC(=O)c1ccc(F)cc1)[C@@H](O)C(C)(C)O2	inactive

# ---- query molecule ----
What is the recorded call for this molecule in the test? CCCN(C1CCN(C(=O)C2CCNCC2)CC1)[C@@H]1CCc2ccc(OC)cc2C1
active

====

# Read-out: E-selectin (Homo sapiens)
# experiment: BSK_SAg_Eselectin: BioMAP Diversity Plus: SAg Assay for Eselectin Biomarker Activity (AID 2283091)
# cond: primary human HUVEC with PBMC; actives raise or lower the signal
Calls of active or inactive are those of the source. Rule for the calls: active = hit-call score of the fitted dose curve at least 0.9, where 1 is the maximum; inactive = score below 0.9.
The categories you may choose from are active, inactive

Oc1ccc2c(c1)-c1ccccc1C2	inactive
O=C1CCCCCN1	inactive
Cc1ccc(N)cc1O	active
Clc1nc(Cl)c(Cl)c(Cl)c1Cl	active
COC(=O)c1ccccc1O	inactive
Nc1nc2ncc(CNc3ccc(C(=O)N[C@@H](CCC(=O)O)C(=O)O)cc3)nc2c(=O)[nH]1	inactive

Called result for O=C(O)CCN(C1(C(=O)NO)CCCC1)S(=O)(=O)c1ccc(Oc2ccc(F)cc2)cc1
inactive

Check the results log: what was the call for CCCCCCc1ccc(O)cc1O ?
active

Just curious, what result did CC(C)=CCC/C(C)=C/CO get here?
inactive

Could you kindly confirm the outcome this assay logged for C=CCCCCCCCCC(=O)O ?
inactive

Identify the outcome logged in this assay for the compound shown: CN(C)c1ccc(Cc2ccc(N(C)C)cc2)cc1
inactive

Fill in: this test's call for CC(C)=CCC/C(C)=C\CO is ___
inactive
